From: PubChem BioAssay (NCI)

- Test system: MOLT-4 leukemia
- assay.info: NCI tumour cell line growth inhibition, 48 h
property.measured: TGI

C=C=C(C)C(=O)N(C(C)C)C(C)C : > 100 µM
O=C(CNc1c(Cl)cccc1Cl)Nc1ccc(-c2nc3ccccc3s2)cc1 : > 27.3 µM
COc1cc(OC)cc(C2C(C#N)=C(N)Oc3c2ccc2ccc(O)cc32)c1 (configuration not stated) : 12.8 µM
COC(=O)C([C@H]1CC[C@H](OCc2ccccc2)[C@@]1(O)COCc1ccccc1)C(C)(O)CCc1ccccc1 (some centres not stated) : 19.7 µM
CCOC(=O)Cn1nc2ccc(Nc3c(C)[n+]([O-])c4cc(F)c(OCC)cc4[n+]3[O-])cc2n1 : > 100 µM
N#Cc1ccc(Sc2ccccc2)cc1C#N : > 100 µM
CC/C=C\C/C=C\C[C@H]1C/C=C2/C(=O)C=C[C@@H]2C/C=C\CCC(=O)O1 : 4.37 µM
COc1cc(-c2nn(-c3ccc(NC(=O)NCCCNC(=O)c4ccccc4)cc3)cc2-c2ccncc2)ccc1Cl : > 100 µM
CC(O)(CCCCCl)c1nc2ccccc2s1 (configuration not stated) : > 100 µM
FC(F)(F)c1cccc2ns[s+]c12 : > 100 µM
CCOC(=O)C1(c2ccccc2)CCCNCC1 (configuration not stated) : > 100 µM
COc1cc2oc(-c3ccc4c(c3)OCO4)c(OC)c(=O)c2c(OC)c1OC : > 100 µM
COC1=C(OC)C23CCc4ccc(OC)c(O)c4C2(CCN3)CC1=O (configuration not stated) : > 100 µM
CC1(C)C(=NN=C(N)N)C(C)(C)C1=NN=C(N)N : > 100 µM
COC(=O)C(C/C=C(\C)c1ccccc1)C(C)=O (configuration not stated) : 51.6 µM
c1ccc(CSc2nnc3c4c5c(sc4nc(-c4cccnc4)n23)CCCCCC5)cc1 : 11.3 µM
O=C(O)c1sccc1O : > 100 µM
COC(=O)[C@]12CC[C@H]3CN(C(=O)OCc4ccccc4)[C@H]([C@H]31)[C@H](C(=O)OCC[Si](C)(C)C)N2S(=O)(=O)c1ccc(C)cc1 : > 100 µM
COc1ccc2c(c1OC)CO[C@@H]2[C@H]1c2c(c(Br)c3c(c2OC)OCO3)CCN1C : > 100 µM
O=C1OC(c2ccccc2)=N/C1=C\c1ccc(F)cc1 : > 100 µM
CCN(CC)c1ccc2c(cc1=O)[C@@H](NC(C)=O)CCc1cc(OC)c(OC)c(OC)c1-2 : > 100 µM
COc1ccc2[nH]c(C(O)(Cc3cccnc3)Cc3cccnc3)cc2c1 : > 100 µM
